biological target: human type 1 glycine transporter (GlyT1) (Homo sapiens); construct: Used in the experiment were T98G cells (glioma cells) developing a human type 1 glycine transporter of (GlyT1); endogenous in cells; test: Glycine uptake inhibition experiment ([3H]glycine uptake in T98G cells); details: T98G glioma cells; [3H]glycine 250 nM; 10-min pretreatment; 15 min at room temperature; read-out: glycine uptake inhibiting activity (IC50)
Endpoint Name: IC50 (nM)

1) Cn1cnc(C(=O)N(Cc2ccnc(-c3ccc(F)c(OC(F)F)c3)c2)C2CCC2)c1 [Compound 213] ... 3.7
2) CC(C)N(Cc1ccc(F)c(-n2ccnc2)c1)C(=O)c1cn(C)cn1 [Compound 74] ... 15
3) Cn1cnc(C(=O)N(Cc2ccc(F)c(-c3ccc(F)nc3)c2)C2CCC2)c1 [Compound 120] ... 8
4) Cc1cn(-c2cc(CN(C(=O)c3cn(C)cn3)C(C)C)ccc2F)cn1 [Compound 143] ... 64
5) Cn1cnc(C(=O)N(Cc2nc(-c3ccc(OC(F)(F)F)cc3)no2)C2CCC2)c1 [Compound 160] ... 330
6) CC(C)N(Cc1ccnc(-c2ccc(OC(F)(F)F)cc2)c1)C(=O)c1cn(C)cn1 [Compound 30] ... 7.3
7) Cn1cnc(C(=O)N(Cc2ccnc(-c3ccc(OC(F)(F)F)cc3)c2)C2CCC2)c1 [Compound 107] ... 3.5
8) Cn1cnc(C(=O)N(Cc2ccnc(-c3cc(F)c(F)cc3F)c2)C2CCC2)c1 [Compound 191] ... 16

----------
biological target: human type 1 glycine transporter (GlyT1) (Homo sapiens, UniProt P48067); construct: Used in the experiment were T98G cells (glioma cells) developing a human type 1 glycine transporter of (GlyT1); endogenous in cells; experiment: Glycine uptake inhibition experiment ([3H]glycine uptake in T98G cells); conditions: T98G glioma cells; [3H]glycine 250 nM; 10-min pretreatment; 15 min at room temperature; read-out: glycine uptake inhibiting activity (IC50)
Sequence (P48067 whole entry): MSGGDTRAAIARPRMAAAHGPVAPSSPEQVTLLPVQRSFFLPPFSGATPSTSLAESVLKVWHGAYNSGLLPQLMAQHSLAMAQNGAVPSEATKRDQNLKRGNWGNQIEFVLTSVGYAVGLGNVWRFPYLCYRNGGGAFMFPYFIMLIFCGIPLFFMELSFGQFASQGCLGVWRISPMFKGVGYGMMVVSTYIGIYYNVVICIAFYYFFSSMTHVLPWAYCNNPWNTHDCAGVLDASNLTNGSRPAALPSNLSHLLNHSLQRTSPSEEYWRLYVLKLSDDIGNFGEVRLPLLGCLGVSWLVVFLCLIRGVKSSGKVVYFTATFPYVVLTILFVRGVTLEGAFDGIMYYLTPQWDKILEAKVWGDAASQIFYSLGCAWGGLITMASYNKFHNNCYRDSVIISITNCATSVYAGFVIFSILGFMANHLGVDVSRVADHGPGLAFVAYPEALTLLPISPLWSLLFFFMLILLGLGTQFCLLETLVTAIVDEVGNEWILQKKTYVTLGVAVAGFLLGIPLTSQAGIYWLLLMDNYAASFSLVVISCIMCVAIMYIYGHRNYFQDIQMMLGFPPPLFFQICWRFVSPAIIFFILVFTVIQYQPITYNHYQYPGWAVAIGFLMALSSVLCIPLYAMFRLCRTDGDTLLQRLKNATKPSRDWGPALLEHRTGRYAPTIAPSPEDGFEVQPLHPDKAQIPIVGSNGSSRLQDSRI
pIC50: −log10 of the molar value.
Endpoint Name: pIC50

1) Cc1cnn(-c2cc(CN(C(=O)c3cn(C)cn3)C(C)C)ccc2F)c1 [Compound 121] ... 6.80
2) Cn1cnc(C(=O)N(Cc2ccc(F)c(-c3ccc(N4CCCC4)nc3)c2)C2CCC2)c1 [Compound 161] ... 7.92
3) CC(C)N(Cc1ccc(F)c(-c2ccccn2)c1)C(=O)c1cn(C)cn1 [Compound 14] ... 7.74
4) Cn1cnc(C(=O)N(Cc2ccc(F)c(-c3cc(C(F)(F)F)ncn3)c2)C2CCC2)c1 [Compound 208] ... 7.85
5) Cn1cnc(C(=O)N(Cc2csc(-c3ccc(OC(F)(F)F)cc3)n2)C2CCC2)c1 [Compound 155] ... 8.24
6) CC(c1ccnc(-c2ccc(F)cc2)c1)N(C(=O)c1cn(C)cn1)C1CCC1 (stereo not shown) [Compound 153] ... 7.52

Reference source: patent US8729271B2
